Target: SNAP protein tags (Homo sapiens, UniProt P16455, A127T/A154D/C150Q/C62A/E30R/G131K/G132T/G153L/K125A/K32I/L33F/M134L/N157G/Q115S/Q116H/R128A/R135S/S151G/S152D/S159E)
Sequence (P16455 1-182 E30R/K32I/L33F/C62A/Q115S/Q116H/K125A/A127T/R128A/G131K/G132T/M134L/R135S/C150Q/S151G/S152D/G153L/A154D/N157G/S159E): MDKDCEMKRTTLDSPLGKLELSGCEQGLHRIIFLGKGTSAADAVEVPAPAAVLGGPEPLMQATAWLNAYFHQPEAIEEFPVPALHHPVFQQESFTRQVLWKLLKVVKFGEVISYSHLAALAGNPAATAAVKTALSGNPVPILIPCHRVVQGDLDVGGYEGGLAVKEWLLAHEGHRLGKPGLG
Assay: Fluorescence activation of probe after incubation with corresponding protein tag (SNAP)
Format: biochemical
Settings: probe 5 μM, protein tag 10 μM, 37° C., 1 hr
property: Fluorescence activation multiple

>>> quantitative_result("CN(CCO)c1ccc(-c2ccc(/C=C(\\C#N)C(=O)NCc3ccc(COc4nc(N)nc5[nH]cnc45)cc3)s2)s1 [Reference Probe 121, reference compound]")
39
>>> quantitative_result("CN(CCOC(=O)NCc1ccc(COc2cc(Cl)nc(N)n2)cc1)c1ccc2cc(/C=C(\\C#N)C(=O)OC(C)(C)C)sc2c1 [probe 33]")
957
>>> quantitative_result("CN(CCOC(=O)NCc1ccc(COc2nc(N)nc3[nH]cnc23)cc1)c1cc2c(s1)-c1sc(/C=C(/C#N)C(=O)O)cc1C2(C)C [probe 98]")
893
